- measurement.target: ShhN protein (Homo sapiens, UniProt Q15465)
- Construct: auto-cleavage of full length Shh into an active 20 kD N-terminal fragment (ShhN); purchased R&D Systems
- Sequence (Q15465 24-197 limits assumed, species assumed): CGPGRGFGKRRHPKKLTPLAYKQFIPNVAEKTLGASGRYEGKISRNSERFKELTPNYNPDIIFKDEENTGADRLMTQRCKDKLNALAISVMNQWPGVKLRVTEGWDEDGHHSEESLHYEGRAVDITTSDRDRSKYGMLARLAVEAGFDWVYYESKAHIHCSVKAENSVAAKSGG
- procedure.details: Surface Plasmon Resonance (SPR) protein binding assay on immobilized ShhN
- conditions: SPR, Biacore T100, ShhN immobilized on CM4 chip, 25° C., compound 0.78 μM-25 μM; read-out: KD
metric.name: Kd

[
  {
    "compound": "CC(=O)N[C@@H]1C/C=C/C[C@@H](C)C(=O)OC[C@@H](c2ccccc2)NC1=O",
    "measurement.target": "ShhN protein (Homo sapiens, UniProt Q15465)",
    "meas.value": "100 to 1000 nM"
  },
  {
    "compound": "C[C@H]1C/C=C/C[C@@H](CC(=O)NCc2ccc(Cl)cc2)C(=O)NC[C@@H](c2ccccc2)OC1=O",
    "measurement.target": "ShhN protein (Homo sapiens, UniProt Q15465)",
    "meas.value": "100 to 1000 nM"
  },
  {
    "compound": "CN1CCN(C(=O)C[C@@H]2C/C=C/CCC(=O)O[C@H](c3ccccc3)CNC2=O)CC1",
    "measurement.target": "ShhN protein (Homo sapiens, UniProt Q15465)",
    "meas.value": "1000 to 100000 nM"
  },
  {
    "compound": "C[C@H]1[C@@H](c2ccccc2)OC(=O)CCCCC[C@@H](CC(=O)NCc2ccc(Cl)cc2)C(=O)N1C",
    "measurement.target": "ShhN protein (Homo sapiens, UniProt Q15465)",
    "meas.value": "100 to 1000 nM"
  },
  {
    "compound": "O=C1CC/C=C/CCC(=O)O[C@H](c2ccccc2)CN1",
    "measurement.target": "ShhN protein (Homo sapiens, UniProt Q15465)",
    "meas.value": "> 100000 nM"
  },
  {
    "compound": "C[C@@H]1NC(=O)[C@H](CC(=O)NCc2ccc(Cl)cc2)C/C=C/CCC(=O)O[C@@H]1c1ccccc1",
    "measurement.target": "ShhN protein (Homo sapiens, UniProt Q15465)",
    "meas.value": "> 100000 nM"
  },
  {
    "compound": "O=C(C[C@@H]1C/C=C/CCC(=O)O[C@H](c2ccccc2)CNC1=O)NCc1ccc(Cl)c(C(F)(F)F)c1",
    "measurement.target": "ShhN protein (Homo sapiens, UniProt Q15465)",
    "meas.value": "> 100000 nM"
  },
  {
    "compound": "O=C(C[C@@H]1C/C=C/CCC(=O)O[C@H](c2ccccc2)CNC1=O)Nc1ccc(Cl)cc1",
    "measurement.target": "ShhN protein (Homo sapiens, UniProt Q15465)",
    "meas.value": "1000 to 100000 nM"
  },
  {
    "compound": "CC(C)(C)OC(=O)C[C@@H]1C/C=C/CCC(=O)N[C@H](c2ccc(F)cc2)COC1=O",
    "measurement.target": "ShhN protein (Homo sapiens, UniProt Q15465)",
    "meas.value": "< 100 nM"
  },
  {
    "compound": "O=C(C[C@@H]1C/C=C/CCC(=O)O[C@H](c2ccccc2)CNC1=O)NC1CCCc2ccccc21 (some centres unmarked)",
    "measurement.target": "ShhN protein (Homo sapiens, UniProt Q15465)",
    "meas.value": "1000 to 100000 nM"
  },
  {
    "compound": "C[C@H]1C/C=C/CCC(=O)N[C@H](c2ccccc2)COC1=O",
    "measurement.target": "ShhN protein (Homo sapiens, UniProt Q15465)",
    "meas.value": "> 100000 nM"
  },
  {
    "compound": "CC(C)(C)OC(=O)C[C@@H]1C/C=C/CCC(=O)N[C@@H]2c3ccccc3C[C@@H]2OC1=O",
    "measurement.target": "ShhN protein (Homo sapiens, UniProt Q15465)",
    "meas.value": "< 100 nM"
  },
  {
    "compound": "O=C1CC/C=C/C[C@@H](CC(=O)N2CCN(c3ccccc3)CC2)C(=O)NC[C@@H](c2ccccc2)O1",
    "measurement.target": "ShhN protein (Homo sapiens, UniProt Q15465)",
    "meas.value": "100 to 1000 nM"
  },
  {
    "compound": "CN1C[C@@H](c2ccccc2)OC(=O)CC/C=C/C[C@@H](Cc2ccc(Cl)cc2)C1=O",
    "measurement.target": "ShhN protein (Homo sapiens, UniProt Q15465)",
    "meas.value": "> 100000 nM"
  },
  {
    "compound": "C[C@@H]1C/C=C/CCC(=O)N[C@@H]2c3ccccc3C[C@@H]2OC1=O",
    "measurement.target": "ShhN protein (Homo sapiens, UniProt Q15465)",
    "meas.value": "100 to 1000 nM"
  },
  {
    "compound": "C[C@H]1[C@@H](c2ccccc2)OC(=O)CC/C=C/C[C@@H](CC(=O)NCc2ccc(Cl)cc2)C(=O)N1C",
    "measurement.target": "ShhN protein (Homo sapiens, UniProt Q15465)",
    "meas.value": "< 100 nM"
  },
  {
    "compound": "C[C@@H]1C/C=C/C[C@H](C)C(=O)N[C@H](c2ccccc2)COC1=O",
    "measurement.target": "ShhN protein (Homo sapiens, UniProt Q15465)",
    "meas.value": "< 100 nM"
  },
  {
    "compound": "COc1ccccc1[C@@H]1COC(=O)[C@H](CC(=O)NCc2ccc(Cl)cc2)C/C=C/CCC(=O)N1",
    "measurement.target": "ShhN protein (Homo sapiens, UniProt Q15465)",
    "meas.value": "> 100000 nM"
  },
  {
    "compound": "C[C@@H]1C/C=C/CC(C)(C)C(=O)N[C@H](c2ccccc2)COC1=O",
    "measurement.target": "ShhN protein (Homo sapiens, UniProt Q15465)",
    "meas.value": "1000 to 100000 nM"
  },
  {
    "compound": "N[C@@H]1C/C=C/CCC(=O)N[C@H](c2ccccc2)COC1=O",
    "measurement.target": "ShhN protein (Homo sapiens, UniProt Q15465)",
    "meas.value": "1000 to 100000 nM"
  },
  {
    "compound": "O=C(C[C@@H]1C/C=C/CCC(=O)OC[C@@H]2CCCN2C1=O)NCc1ccc(Cl)cc1",
    "measurement.target": "ShhN protein (Homo sapiens, UniProt Q15465)",
    "meas.value": "1000 to 100000 nM"
  },
  {
    "compound": "CN1CCC(CNC(=O)C[C@@H]2C/C=C/CCC(=O)O[C@H](c3ccccc3)CNC2=O)CC1",
    "measurement.target": "ShhN protein (Homo sapiens, UniProt Q15465)",
    "meas.value": "< 100 nM"
  },
  {
    "compound": "O=C(C[C@@H]1C/C=C/CCC(=O)N[C@H](c2ccccc2)COC1=O)NCc1ccc(Cl)nc1",
    "measurement.target": "ShhN protein (Homo sapiens, UniProt Q15465)",
    "meas.value": "< 100 nM"
  }
]
